B1: Zinc finger homeobox protein 4, residues 2086 to 2141; numbered along this chain, Q86UP3 (parent)
chain: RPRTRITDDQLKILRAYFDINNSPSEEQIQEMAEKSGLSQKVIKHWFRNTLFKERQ

Variants of: B1
assay.summary: abundance fitness (aPCA) (normalised: wild type 0, dead -1); higher = more abundant; growth selection in yeast, the domain comes from the species named
experimental.setup: Homo sapiens
Label class 0 if abundance fitness falls below -0.2; label class 1 in every other case.

For orientation, consider the following solved cases.
F52V    class 1
D19H    class 0
S36F    class 0
R48T    class 1

Turning now to a further variant:
Answer whether abundance fitness of D19C is greater than or equal to -0.2. class 1
